# credit: patent US12686690B2

target: hOX2R (Homo sapiens, UniProt O43614); test: hOX2R IPone assay (orexin receptor agonism); settings: orexin receptor agonist, IPone readout; read-out: hOX2R_IPone EC50
Sequence (O43614 whole entry): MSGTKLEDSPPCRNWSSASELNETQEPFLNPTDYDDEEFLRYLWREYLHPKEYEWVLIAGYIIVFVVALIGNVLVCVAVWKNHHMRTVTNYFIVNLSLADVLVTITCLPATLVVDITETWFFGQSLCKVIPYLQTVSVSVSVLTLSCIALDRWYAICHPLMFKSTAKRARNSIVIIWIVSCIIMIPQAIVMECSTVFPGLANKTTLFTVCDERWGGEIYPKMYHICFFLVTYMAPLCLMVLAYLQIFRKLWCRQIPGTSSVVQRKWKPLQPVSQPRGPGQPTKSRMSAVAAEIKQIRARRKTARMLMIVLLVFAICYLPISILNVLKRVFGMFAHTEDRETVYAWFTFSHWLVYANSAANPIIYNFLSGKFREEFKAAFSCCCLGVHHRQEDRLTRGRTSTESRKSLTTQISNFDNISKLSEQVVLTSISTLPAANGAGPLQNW
property: EC50 (nM)
I only need the number, in nM, no unit after it.

So what does the record say about EC50 for CCN1C(=O)NC(C2CCOCC2)CCCCCOc2nc(cn3ccnc23)-c2cc(ncc2OC)[C@H]1C (single isomer, unassigned) [Example 68A] ? 38.4

Can you share its EC50? I mean this compound: CCN1C(=O)N[C@@H](CCC(F)(F)F)CCCCCOc2nc(cn3ccnc23)-c2cnnc(c2)[C@H]1C 541

// lookup EC50 for CCN1C(=O)NCC(C(F)(F)F)N(C)CCOc2nc(cn3ccnc23)-c2cccc(c2)[C@H]1C (single isomer, unassigned) [Example 25B] 173
